PROTOCOL: yeast display, Sf9 membrane polyspecificity reagent, FACS + sequencing; frameworks hold sequencing errors
VALUE KIND: polyreactivity (PSR sort gate)

• QVQLVESGGGLVQAGGSLRLSCAASGFIFSSNAMGWYRQAPGKERELVAAITSSGGGTYYADSVKGRFTISRDNAKNTVYLQMNSLKPEDTAVYYCNAAYKYAIPSYGYWGQGTQVTVSS = low polyreactivity
• QVQLVESGGGLVQAGGSLRLSCAASGSIFARYTMGWYRQAPGKERELVASITWRTGSTYYADSVKGRFTISRDNAKNTVYLQMNSLKPEDTAVYYCNKAYTITQYGWIPLGYWGQGTQVTVSS = high polyreactivity
• QVQLVESGGGLLQAGGSLRLSCAASGSTFVYYAMGWYRQAPGKERELVASINSGGSTYYADSVKGRFRISRDNEKNTVYLQMNSLKPEDTAVYYCAATSIPPSVHLQDPTYDYWGQGTQVTVSS = low polyreactivity
• QVQLVESGGGLVQAGGSLRLSCAASGRTFRTNDMGWYRQAPGKERELVARITRGGSTYADSVKGRFTISRDNAKNTVYLHMNSLKPEDTAVYYCAAVTKLSGIRYNYWGQGTQVTVSS = low polyreactivity

# return polyreactivity (PSR sort gate) for each item in the list
1. QVQLVESGGGLVQAGGSLRLSCAASGITFPLYVMGWYRQAPGKERELVAAISASGGSTYADSVKGRFTISRDNAKNTVYLQMNSLKPEDTAVYYCNADVYVGYEYVYWGQGTQVTVSS
2. QVQLVESGGGLVQAGGSLRLSCAASGFTFRYYTMGWYRQAPGKERELVAAITASGSSTYYADSVKGRFTISRDNAKNTVYLQMNSLKPEDTAVYYSKALHFYGVGRYDHWGQGNQVTVSS

low polyreactivity
high polyreactivity

Go through the items and report each one's polyreactivity (PSR sort gate).
1. QVQLVESGGGLVQAGGSLRLSCAASGIIFDKNAMGWYRQAPGKERELVAVITRGGSTYYADSVKGRFTISRDNAKNTVYLQMNSLKPEDTAVYYCAARYTPGFGYWGQGTQVTVSS
2. LVQHVESGGGIVQAGGSLRLTCAASGSIFASYAMGWYRLAPGKEREFVAAISRRSGSTYYSDSVKGRFTISRDYAKNTVYLQLKSLKPEDTAVYDCAGALYYGYDHYNYWGQGTQVTVSS

["high polyreactivity", "high polyreactivity"]

Answer for every listed entry: what is its polyreactivity (PSR sort gate)? The entries follow.
1. QVQIVESGGGLVQAGGSLRLSCAASGSTFQCYAMGWYRQAPGKERQLVAAINKSGGTTYYADSVKGRFTISRDNAKNTVYLQMNSLNPEDTAVYSCATDNPVVYQPCNMDYWGQGTQVTVSS
2. QVQLVQSGGGLVQAGGSLRLSCAASGRTFGVYAMGWYRQAPGKERELVAAITWSGGSTYYADSVKGRFTISRDNAKNTVYLQMNSLKPEDTAVYYCAALTWLSGVKMGYWGQGTQVTVSS
3. QVQLVESGGGLVQAGGSLRLSCAASGRTFYSNTIGWYRQAPGNESELVAAINRGGSTYYADSVKGRFTISRDNAKNTVYFQMNSLKPEDTAVYYCAVGYAHSSNRRYYYKKTHGYWGQGTQVTVSS

["low polyreactivity", "high polyreactivity", "low polyreactivity"]

Numbers sourced from the nanobody polyreactivity screen of Harvey et al. (2022).
